Data origin: patent US9815831B2

Listing of entries alongside the reported GI50.
- Test system: MKN-45
- measurement_protocol: Inhibition of MKN-45 proliferation (MTT)
- Type: cell-based, human
- condition_description: Homo sapiens, MKN-45, Table 4C; MKN-45 proliferation; read-out: MKN45 GI50

Take a look at these entries with their results.
{"structure": "NC(=O)c1ccc(-c2ccc3ncn(Cc4cc5cccnc5cc4F)c3n2)cc1Cl", "result": "50 to 100 nM"}
{"structure": "NC(=O)c1c(F)cc(-c2ccc3nnn(Cc4cc5cccnc5cc4F)c3n2)cc1F", "result": "< 25 nM"}
{"structure": "Cc1cc(-c2ccc3ncn(Cc4cc5cccnc5cc4F)c3n2)ccc1C(N)=O", "result": "50 to 100 nM"}

Here is the next item to consider.
Tell me measured GI50 for `NC(=O)c1ccc(-c2ccc3ncn(Cc4c(F)cc5ncccc5c4F)c3n2)cc1Cl` please. < 25 nM
